# System: NCI-H1944
# assay_details: relative viability (nuclei count vs DMSO), 5 days (fraction); higher = more cells survive
# condition_label: first compound 5 µM
endpoint_name: relative viability
API note: the answer field is a bare number with no unit suffix.

According to the records, this molecule O=C(O)CCCCC(CCSCc1ccccc1)SCc1ccccc1 (stereo not given) [CPI-613] + O=C(c1cc(Cc2n[nH]c(=O)c3ccccc23)ccc1F)N1CCN(C(=O)C2CC2)CC1 [Olaparib] (partner 8 µM) displays relative viability of 0.404

relative viability reading for O=C(O)CCCCC(CCSCc1ccccc1)SCc1ccccc1 (stereo not given) [CPI-613] + CC(=O)c1c(C)c2cnc(Nc3ccc(N4CCNCC4)cn3)nc2n(C2CCCC2)c1=O [Palbociclib] (partner 0.5 µM) : 0.331

relative viability reading for O=C(O)CCCCC(CCSCc1ccccc1)SCc1ccccc1 (stereo not given) [CPI-613] + Nc1nc2[nH]cc(CCc3ccc(C(=O)N[C@@H](CCC(=O)O)C(=O)O)cc3)c2c(=O)[nH]1 [Pemetrexed] (partner 0.2 µM) : 0.647

The recorded relative viability for entry O=C(O)CCCCC(CCSCc1ccccc1)SCc1ccccc1 (stereo not given) [CPI-613] + COc1cccc2cc(-c3nc([C@H]4CC[C@H](C(=O)O)CC4)n4ncnc(N)c34)[nH]c12 [OSI-027] (partner 0.5 µM) equals 0.391

The molecule O=C(O)CCCCC(CCSCc1ccccc1)SCc1ccccc1 (stereo not given) [CPI-613] + Cc1cc(Nc2cc(N3CCN(C)CC3)nc(Sc3ccc(NC(=O)C4CC4)cc3)n2)n[nH]1 [Tozasertib] (partner 0.1 µM) showed relative viability equal to 0.264

====

# System: NCI-H1648
# assay_details: relative viability (nuclei count vs DMSO), 5 days (fraction); higher = more cells survive
# condition_label: first compound 4 µM
endpoint_name: relative viability

Known relative viability results, listed for orientation:
compound	relative viability
Cc1sc2c(c1C)C(c1ccc(Cl)cc1)=N[C@@H](CC(=O)OC(C)(C)C)c1nnc(C)n1-2 [JQ1] + O=C(CCCCCCC(=O)Nc1ccccc1)NO [Vorinostat] (partner 1 µM)	0.198
Cc1sc2c(c1C)C(c1ccc(Cl)cc1)=N[C@@H](CC(=O)OC(C)(C)C)c1nnc(C)n1-2 [JQ1] + CC(=O)Nc1cccc(-n2c(=O)n(C3CC3)c(=O)c3c(Nc4ccc(I)cc4F)n(C)c(=O)c(C)c32)c1 [Trametinib] (partner 0.02 µM)	0.245
Cc1sc2c(c1C)C(c1ccc(Cl)cc1)=N[C@@H](CC(=O)OC(C)(C)C)c1nnc(C)n1-2 [JQ1] + Nc1nc2[nH]cc(CCc3ccc(C(=O)N[C@@H](CCC(=O)O)C(=O)O)cc3)c2c(=O)[nH]1 [Pemetrexed] (partner 0.2 µM)	0.258
Cc1sc2c(c1C)C(c1ccc(Cl)cc1)=N[C@@H](CC(=O)OC(C)(C)C)c1nnc(C)n1-2 [JQ1] + O=C(c1cc(Cc2n[nH]c(=O)c3ccccc23)ccc1F)N1CCN(C(=O)C2CC2)CC1 [Olaparib] (partner 8 µM)	0.289

The recorded relative viability for entry Cc1sc2c(c1C)C(c1ccc(Cl)cc1)=N[C@@H](CC(=O)OC(C)(C)C)c1nnc(C)n1-2 [JQ1] + COc1cccc2cc(-c3nc([C@H]4CC[C@H](C(=O)O)CC4)n4ncnc(N)c34)[nH]c12 [OSI-027] (partner 0.5 µM) equals 0.274

====

# Tested on: NCI-H2087
# assay_details: relative viability (nuclei count vs DMSO), 5 days (fraction); higher = more cells survive
# condition_label: first compound 0.000632 µM
Property: relative viability; scope: individual compounds
No unit in the answer, please; the number alone is enough.

compound	relative viability
CC(=O)O[C@@]12CO[C@@H]1C[C@H](O)[C@@]1(C)C(=O)[C@H](O)C3=C(C)[C@@H](OC(=O)[C@H](O)[C@@H](NC(=O)OC(C)(C)C)c4ccccc4)C[C@@](O)([C@@H](OC(=O)c4ccccc4)[C@H]21)C3(C)C [Docetaxel] + CCNC(=O)c1noc(-c2cc(C(C)C)c(O)cc2O)c1-c1ccc(CN2CCOCC2)cc1 [Luminespib] (partner 0.01 µM)	0.189

Record summary for CC(=O)O[C@@]12CO[C@@H]1C[C@H](O)[C@@]1(C)C(=O)[C@H](O)C3=C(C)[C@@H](OC(=O)[C@H](O)[C@@H](NC(=O)OC(C)(C)C)c4ccccc4)C[C@@](O)([C@@H](OC(=O)c4ccccc4)[C@H]21)C3(C)C [Docetaxel] + CS(=O)(=O)N1CCN(Cc2cc3nc(-c4cccc5[nH]ncc45)nc(N4CCOCC4)c3s2)CC1 [Pictilisib] (partner 1 µM) : reported relative viability = 0.631

Record summary for CC(=O)O[C@@]12CO[C@@H]1C[C@H](O)[C@@]1(C)C(=O)[C@H](O)C3=C(C)[C@@H](OC(=O)[C@H](O)[C@@H](NC(=O)OC(C)(C)C)c4ccccc4)C[C@@](O)([C@@H](OC(=O)c4ccccc4)[C@H]21)C3(C)C [Docetaxel] + CC(C)C[C@H](NC(=O)[C@H](Cc1ccccc1)NC(=O)c1cnccn1)B(O)O [Bortezomib] (partner 0.002 µM) : reported relative viability = 0.665

====

We begin with a simple list: items and their reported relative viability.
# Tested on: NCI-H2347
# assay_details: relative viability (nuclei count vs DMSO), 5 days (fraction); higher = more cells survive
# condition_label: first compound 0.08 µM

compound	assay_target	relative viability
O=c1[nH]c2ccccc2n1C1CCN(CCCC(c2ccc(F)cc2)c2ccc(F)cc2)CC1 [Pimozide] + Nc1ncn([C@H]2C[C@H](O)[C@@H](CO)O2)c(=O)n1 [Decitabine] (partner 2 µM)	NCI-H2347	0.651
Cc1cnc(-c2cnc(NCCNc3ccc(C#N)cn3)nc2-c2ccc(Cl)cc2Cl)[nH]1 + C[C@]1(O)C[C@@H](c2nc(-c3ccc4ccc(-c5ccccc5)nc4c3)c3c(N)nccn32)C1 [Linsitinib] (partner 1 µM)	NCI-H2347	1.08

Please look at the following compound next.
With NCI-H2347 as the test system, Cc1cnc(-c2cnc(NCCNc3ccc(C#N)cn3)nc2-c2ccc(Cl)cc2Cl)[nH]1 + C[C@@H](Oc1cc(-c2cnn(C3CCNCC3)c2)cnc1N)c1c(Cl)ccc(F)c1Cl [Crizotinib] (partner 1 µM) showed relative viability of 0.734

====

# Tested on: NCI-H1944
# assay_details: relative viability (nuclei count vs DMSO), 5 days (fraction); higher = more cells survive
# condition_label: first compound 0.8 µM
endpoint_name: relative viability
// response body must contain only the number

compound	relative viability
O=c1[nH]c2ccccc2n1C1CCN(CCCC(c2ccc(F)cc2)c2ccc(F)cc2)CC1 [Pimozide] + COc1cccc2cc(-c3nc([C@H]4CC[C@H](C(=O)O)CC4)n4ncnc(N)c34)[nH]c12 [OSI-027] (partner 0.5 µM)	0.33

In the following, a different compound is considered.
Reported relative viability (NCI-H1944) for entry O=c1[nH]c2ccccc2n1C1CCN(CCCC(c2ccc(F)cc2)c2ccc(F)cc2)CC1 [Pimozide] + C[C@]1(O)C[C@@H](c2nc(-c3ccc4ccc(-c5ccccc5)nc4c3)c3c(N)nccn32)C1 [Linsitinib] (partner 1 µM) is 1.05

====

# Test system: NCI-H2228
# assay_details: relative viability (nuclei count vs DMSO), 5 days (fraction); higher = more cells survive
# condition_label: first compound 0.5 µM
endpoint_name: relative viability
The answer should be written as a number, with no unit following it.

Solved entries:
compound	endpoint_name	measured_result
COc1cc2nccc(Oc3ccc(NC(=O)Nc4cc(C)on4)c(Cl)c3)c2cc1OC [Tivozanib] + CC1(C)CCC(c2ccc(Cl)cc2)=C(CN2CCN(c3ccc(C(=O)NS(=O)(=O)c4ccc(N[C@H](CCN5CCOCC5)CSc5ccccc5)c(S(=O)(=O)C(F)(F)F)c4)cc3)CC2)C1 [Navitoclax] (partner 0.5 µM)	relative viability	1.24
COc1cc2nccc(Oc3ccc(NC(=O)Nc4cc(C)on4)c(Cl)c3)c2cc1OC [Tivozanib] + CCNC(=O)c1noc(-c2cc(C(C)C)c(O)cc2O)c1-c1ccc(CN2CCOCC2)cc1 [Luminespib] (partner 0.01 µM)	relative viability	0.109

Noted for COc1cc2nccc(Oc3ccc(NC(=O)Nc4cc(C)on4)c(Cl)c3)c2cc1OC [Tivozanib] + Cc1cc(Nc2cc(N3CCN(C)CC3)nc(Sc3ccc(NC(=O)C4CC4)cc3)n2)n[nH]1 [Tozasertib] (partner 0.1 µM) : its relative viability reads 0.274

The compound Nc1ccn([C@@H]2O[C@H](CO)[C@@H](O)[C@@H]2O)c(=O)n1 [Cytarabine] + CS(=O)(=O)N1CCN(Cc2cc3nc(-c4cccc5[nH]ncc45)nc(N4CCOCC4)c3s2)CC1 [Pictilisib] (partner 1 µM) showed relative viability equal to 0.146

The compound listed as COc1cc2nccc(Oc3ccc(NC(=O)Nc4cc(C)on4)c(Cl)c3)c2cc1OC [Tivozanib] + CS(=O)(=O)CCNCc1ccc(-c2ccc3ncnc(Nc4ccc(OCc5cccc(F)c5)c(Cl)c4)c3c2)o1 [Lapatinib] (partner 2 µM) shows relative viability equal to 0.948

So, Nc1ccn([C@@H]2O[C@H](CO)[C@@H](O)[C@@H]2O)c(=O)n1 [Cytarabine] + CS(=O)(=O)CCNCc1ccc(-c2ccc3ncnc(Nc4ccc(OCc5cccc(F)c5)c(Cl)c4)c3c2)o1 [Lapatinib] (partner 2 µM) ? Its relative viability was 0.136

Data point: Nc1ccn([C@@H]2O[C@H](CO)[C@@H](O)[C@@H]2O)c(=O)n1 [Cytarabine] + O=C(CCCCCCC(=O)Nc1ccccc1)NO [Vorinostat] (partner 1 µM) ; relative viability = 0.0947

Measured relative viability of COc1cc2nccc(Oc3ccc(NC(=O)Nc4cc(C)on4)c(Cl)c3)c2cc1OC [Tivozanib] + O=C(CCCCCCC(=O)Nc1ccccc1)NO [Vorinostat] (partner 1 µM) : 0.626
